biological target: TYK2 (Homo sapiens, UniProt P29597); assay: TYK2 degradation MSD assay in EBV-B cells; type: cell-based; design: endogenous in cells; host or cells: EBV-B cells; conditions: 4 to 24 hours incubation, read-out: TYK2 MSD DC50 rating in EBV-B
Sequence (P29597 whole entry): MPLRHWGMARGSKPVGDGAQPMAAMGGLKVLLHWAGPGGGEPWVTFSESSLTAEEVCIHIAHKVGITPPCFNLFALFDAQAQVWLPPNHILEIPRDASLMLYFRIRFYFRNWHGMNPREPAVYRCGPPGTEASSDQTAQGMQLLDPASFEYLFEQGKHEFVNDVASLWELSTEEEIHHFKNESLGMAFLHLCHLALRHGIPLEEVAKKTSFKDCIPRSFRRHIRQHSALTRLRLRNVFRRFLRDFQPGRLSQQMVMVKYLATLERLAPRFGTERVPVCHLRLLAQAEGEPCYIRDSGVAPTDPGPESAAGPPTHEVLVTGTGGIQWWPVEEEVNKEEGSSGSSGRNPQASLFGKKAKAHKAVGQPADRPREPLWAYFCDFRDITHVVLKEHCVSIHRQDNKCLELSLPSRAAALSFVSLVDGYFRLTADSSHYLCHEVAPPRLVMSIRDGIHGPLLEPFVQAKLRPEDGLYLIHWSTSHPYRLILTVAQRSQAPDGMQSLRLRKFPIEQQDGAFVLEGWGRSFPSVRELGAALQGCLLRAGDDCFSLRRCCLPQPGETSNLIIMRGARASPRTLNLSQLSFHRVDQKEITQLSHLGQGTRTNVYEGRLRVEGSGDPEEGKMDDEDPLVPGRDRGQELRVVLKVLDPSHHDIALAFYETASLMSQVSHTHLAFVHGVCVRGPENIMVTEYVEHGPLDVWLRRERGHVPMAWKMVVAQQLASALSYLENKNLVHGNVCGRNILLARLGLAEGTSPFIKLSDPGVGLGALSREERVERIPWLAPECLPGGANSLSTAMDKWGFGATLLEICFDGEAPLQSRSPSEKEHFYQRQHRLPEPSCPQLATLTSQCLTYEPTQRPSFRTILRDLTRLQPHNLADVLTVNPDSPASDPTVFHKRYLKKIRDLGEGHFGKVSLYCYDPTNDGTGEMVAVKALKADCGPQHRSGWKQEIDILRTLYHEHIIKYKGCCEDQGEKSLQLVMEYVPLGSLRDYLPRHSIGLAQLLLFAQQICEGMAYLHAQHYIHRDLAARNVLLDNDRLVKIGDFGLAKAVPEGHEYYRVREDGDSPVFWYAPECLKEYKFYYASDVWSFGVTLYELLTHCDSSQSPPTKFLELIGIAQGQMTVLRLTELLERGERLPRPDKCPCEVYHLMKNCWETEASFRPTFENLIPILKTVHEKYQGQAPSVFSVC
reported.property: DC50

Data request: Consider the compound CNc1cc(Nc2cccc(CN3CCN(c4ccc5c(c4)n(C)c(=O)n5C4CCC(=O)NC4=O)CC3)c2)nn2c(C(=O)NC3CC3)cnc12 (centres unmarked) and give its measured DC50.
Data returned: > 100 nM

Data request: What measured DC50 goes with COc1c(Nc2cc(C(F)F)c3ncc(C(=O)N[C@@H]4C[C@@H]4F)n3n2)cccc1-c1ccc(CN2CCN(c3ccc(-c4ccc5c(c4)n(C)c(=O)n5C4CCC(=O)NC4=O)cc3)CC2)cn1 (mixture of isomers) ?
Data returned: > 100 nM

Data request: Which DC50 is reported for this compound? CNc1cc(-c2ccc(-c3ccc(CN4CCC(CN5CCN(c6ccc7c(c6)n(C)c(=O)n7C6CCC(=O)NC6=O)CC5)CC4)cn3)cc2)nn2c(C(=O)N[C@@H]3C[C@@H]3F)cnc12 (some centres unmarked)
Data returned: > 100 nM

Data request: Request the reported DC50 associated with CNC(=O)c1cnc(Nc2ccc(CN3CCC(OC4CC(c5ccc6c(c5)n(C)c(=O)n6C5CCC(=O)NC5=O)C4)CC3)cn2)cc1Nc1cccc(-c2ncc(F)cn2)c1OC (centres unmarked)
Data returned: < 1 nM

Data request: Dear colleague, I am looking for the recorded DC50 of the following compound: CNC(=O)c1cnc(Nc2ccc(CN3CCC(N4CC(c5ccc6c(c5)n(C)c(=O)n6C5CCC(=O)NC5=O)C4)CC3)cn2)cc1Nc1cccc(-c2ncc(F)cn2)c1OC (centres unmarked)
Data returned: < 1 nM

Values compiled from patent US20250051338A1.
